# Test system: Staphylococcus aureus (65 strains)
# assayRemarks: MIC broth microdilution, S. aureus all isolates
# conditionLabel: S. aureus (65), all resistance subsets
observedProperty: MIC 90% (µg/mL)
Reply numerically in µg/mL, unit not repeated.

For orientation, consider the following solved cases.
compound="CCCCCCCCCCNCCNC1(C)CC(OC2C(Oc3c4cc5cc3Oc3ccc(cc3Cl)C(O)C3NC(=O)C(NC(=O)C5NC(=O)C(CC(N)=O)NC(=O)C(NC(=O)C(CC(C)C)NC)C(O)c5ccc(c(Cl)c5)O4)c4ccc(O)c(c4)-c4c(cc(O)c(CNCCOCCOCCN)c4O)C(C(=O)O)NC3=O)OC(CO)C(O)C2O)OC(C)C1O (stereo not drawn)" studytarget="Staphylococcus aureus (65 strains)" observedproperty="MIC 90%" valueunit=µg/mL observedvalue=0.12
compound="CNC(CC(C)C)C(=O)NC1C(=O)NC(CC(N)=O)C(=O)NC2C(=O)NC3C(=O)NC(C(=O)NC(C(=O)NCCOCCOCCN)c4cc(O)cc(O)c4-c4cc3ccc4O)C(O)c3ccc(c(Cl)c3)Oc3cc2cc(c3OC2OC(CO)C(O)C(O)C2OC2CC(C)(NCc3ccc(OCc4ccc(Cl)c(Cl)c4)cc3)C(O)C(C)O2)Oc2ccc(cc2Cl)C1O (stereo not drawn)" studytarget="Staphylococcus aureus (65 strains)" observedproperty="MIC 90%" valueunit=µg/mL observedvalue=0.25

For CNC(CC(C)C)C(=O)NC1C(=O)NC(CC(N)=O)C(=O)NC2C(=O)NC3C(=O)NC(C(=O)NC(C(=O)O)c4cc(O)c(CNCCOCCOCC[N+](C)(C)C)c(O)c4-c4cc3ccc4O)C(O)c3ccc(c(Cl)c3)Oc3cc2cc(c3OC2OC(CO)C(O)C(O)C2OC2CC(C)(NCc3ccc(-c4ccc(Cl)cc4)cc3)C(O)C(C)O2)Oc2ccc(cc2Cl)C1O (stereo not drawn) , what is its reported MIC 90%?
0.5

====

# System: heterogeneous VISA (hVISA, 10)
# assayRemarks: MIC broth microdilution, hVISA
observedProperty: MIC 90% (µg/mL)
Please respond with the number in µg/mL and leave the unit unwritten.

# get_value(readout= MIC 90%, system= heterogeneous VISA (hVISA, 10)) for CNC(CC(C)C)C(=O)NC1C(=O)NC(CC(N)=O)C(=O)NC2C(=O)NC3C(=O)NC(C(=O)NC(C(=O)O)c4cc(O)c(CNCCOCCOCCN)c(O)c4-c4cc3ccc4O)C(O)c3ccc(c(Cl)c3)Oc3cc2cc(c3OC2OC(CO)C(O)C(O)C2OC2CC(C)(NCc3ccc(-c4ccc(Cl)cc4)cc3)C(O)C(C)O2)Oc2ccc(cc2Cl)C1O (stereo not drawn) [Compound 11]
0.12

// fetch heterogeneous VISA (hVISA, 10) MIC 90% for CNC(CC(C)C)C(=O)NC1C(=O)NC(CC(N)=O)C(=O)NC2C(=O)NC3C(=O)NC(C(=O)NC(C(=O)O)c4cc(O)c(CNCCOCCOCCN(C)C)c(O)c4-c4cc3ccc4O)C(O)c3ccc(c(Cl)c3)Oc3cc2cc(c3OC2OC(CO)C(O)C(O)C2OC2CC(C)(NCc3ccc(-c4ccc(Cl)cc4)cc3)C(O)C(C)O2)Oc2ccc(cc2Cl)C1O (stereo not drawn) [Compound 12]
0.12

====

# System: methicillin-susceptible S. aureus (MSSA, 22)
# assayRemarks: MIC broth microdilution, MSSA
# conditionLabel: MSSA (22)
observedProperty: MIC 90% (µg/mL)
Please state the figure in µg/mL; there is no need to write the unit.

compound="CCCCCCCCCCNCCNC1(C)CC(OC2C(Oc3c4cc5cc3Oc3ccc(cc3Cl)C(O)C3NC(=O)C(NC(=O)C5NC(=O)C(CC(N)=O)NC(=O)C(NC(=O)C(CC(C)C)NC)C(O)c5ccc(c(Cl)c5)O4)c4ccc(O)c(c4)-c4c(cc(O)c(CNCCOCCOCCN)c4O)C(C(=O)O)NC3=O)OC(CO)C(O)C2O)OC(C)C1O (stereo not drawn)" observedvalue=0.06

What does the record list as MIC 90% for CNC(CC(C)C)C(=O)NC1C(=O)NC(CC(N)=O)C(=O)NC2C(=O)NC3C(=O)NC(C(=O)NC(C(=O)NCCOCCOCCN)c4cc(O)cc(O)c4-c4cc3ccc4O)C(O)c3ccc(c(Cl)c3)Oc3cc2cc(c3OC2OC(CO)C(O)C(O)C2OC2CC(C)(NCc3ccc(OCc4ccc(Cl)c(Cl)c4)cc3)C(O)C(C)O2)Oc2ccc(cc2Cl)C1O (stereo not drawn) ?
0.06

Item CNC(CC(C)C)C(=O)NC1C(=O)NC(CC(N)=O)C(=O)NC2C(=O)NC3C(=O)NC(C(=O)NC(C(=O)O)c4cc(O)c(CNCCOCCOCCOCCN(C)C)c(O)c4-c4cc3ccc4O)C(O)c3ccc(c(Cl)c3)Oc3cc2cc(c3OC2OC(CO)C(O)C(O)C2OC2CC(C)(NCc3ccc(-c4ccc(Cl)cc4)cc3)C(O)C(C)O2)Oc2ccc(cc2Cl)C1O (stereo not drawn) has what recorded MIC 90%?
0.25

Value lookup for MIC 90%; key = CNC(CC(C)C)C(=O)NC1C(=O)NC(CC(N)=O)C(=O)NC2C(=O)NC3C(=O)NC(C(=O)NC(C(=O)NCCOCCOCCN(C)C)c4cc(O)cc(O)c4-c4cc3ccc4O)C(O)c3ccc(c(Cl)c3)Oc3cc2cc(c3OC2OC(CO)C(O)C(O)C2OC2CC(C)(NCc3ccc(-c4ccc(Cl)cc4)cc3)C(O)C(C)O2)Oc2ccc(cc2Cl)C1O (stereo not drawn)
0.06
